Property: IC50 (ng Ab/mL), viability of A375 cells; scope: individual binders
Molecular target: T1, IL-13Rα2 receptor (human, UniProt Q14627 27-380)
T1 sequence (looked up): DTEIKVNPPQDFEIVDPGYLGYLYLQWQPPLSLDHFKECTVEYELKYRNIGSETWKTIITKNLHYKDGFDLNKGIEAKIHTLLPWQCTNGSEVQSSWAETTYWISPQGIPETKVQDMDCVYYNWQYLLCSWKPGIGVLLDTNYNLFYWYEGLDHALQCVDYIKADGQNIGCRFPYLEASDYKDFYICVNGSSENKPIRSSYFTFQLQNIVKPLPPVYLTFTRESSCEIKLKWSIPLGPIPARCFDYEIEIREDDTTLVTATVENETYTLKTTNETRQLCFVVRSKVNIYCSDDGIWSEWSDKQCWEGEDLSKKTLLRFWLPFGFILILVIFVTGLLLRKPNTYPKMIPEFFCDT
Assay: cell-based or functional assay
Just so you know, I need the unit written after the number.

Record excerpt, results attached:
• IL13Ra2-AB08-v1010-hG1-(C)_mcValCitPABC-#226 (antibody, V domains shown, drug-linker mcValCitPABC-#226 on cysteine (C), positions not given; drug-linker mcValCitPABC-#226 on cysteine (C), positions not given; DAR 3 per antibody) VH: EVQLVESGGGLVQPGGSLRLSCAASGFTFSRNGMSWVRQAPGKGLEWVATVSSGGSYIYYADSVKGRFTISRDNAKNSLYLQMNSLRAEDTAVYYCARQGTTALATRFFDVWGQGTLVTVSS VL: DIQMTQSPSSLSASVGDRVTITCKASQDVGTAVAWYQQKPGKAPKLLIYSASYRSTGVPSRFSGSGSGTDFTLTISSLQPEDFATYYCQHHYSAPWTFGGGTKVEIKT = 2.9 ng Ab/mL
• IL13Ra2-AB08-v1010-hG1-(C)_Mal(H2O)Peg6C2-0#118 (antibody, V domains shown, drug-linker Mal(H2O)Peg6C2-0#118 on cysteine (C), positions not given; drug-linker Mal(H2O)Peg6C2-0#118 on cysteine (C), positions not given; DAR 2.9 per antibody) VH: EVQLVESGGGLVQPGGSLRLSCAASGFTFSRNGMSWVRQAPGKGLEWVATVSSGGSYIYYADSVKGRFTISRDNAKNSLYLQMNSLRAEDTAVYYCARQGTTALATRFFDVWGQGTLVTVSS VL: DIQMTQSPSSLSASVGDRVTITCKASQDVGTAVAWYQQKPGKAPKLLIYSASYRSTGVPSRFSGSGSGTDFTLTISSLQPEDFATYYCQHHYSAPWTFGGGTKVEIKT = 4.9 ng Ab/mL

// next item, IC50 (ng Ab/mL), viability of A375 cells requested
### Prompt Would you kindly share the measured IC50 (ng Ab/mL), viability of A375 cells for IL13Ra2-AB08-v1010-hG1-(C)_mc-#115 (antibody, V domains shown, drug-linker mc-#115 on cysteine (C), positions not given; drug-linker mc-#115 on cysteine (C), positions not given; DAR 4.3 per antibody) VH: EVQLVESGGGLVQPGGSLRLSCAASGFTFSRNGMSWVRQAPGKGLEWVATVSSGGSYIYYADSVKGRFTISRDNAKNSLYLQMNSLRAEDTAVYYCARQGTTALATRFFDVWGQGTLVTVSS VL: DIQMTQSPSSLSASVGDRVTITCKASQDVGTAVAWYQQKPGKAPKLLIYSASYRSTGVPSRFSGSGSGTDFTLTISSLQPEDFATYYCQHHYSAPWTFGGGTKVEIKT ?
### Response 2.2 ng Ab/mL
